biological target: VEGFR-2 (Homo sapiens); construct: purchased Cell Signaling Technology CO; assay: Protein kinase activity by ELISA in vitro, VEGFR-2; assay type: biochemical; settings: concentration of 10^−7 mol/L; read-out: kinase inhibition ratio, VEGFR-2
Sequence (P35968 20-1356): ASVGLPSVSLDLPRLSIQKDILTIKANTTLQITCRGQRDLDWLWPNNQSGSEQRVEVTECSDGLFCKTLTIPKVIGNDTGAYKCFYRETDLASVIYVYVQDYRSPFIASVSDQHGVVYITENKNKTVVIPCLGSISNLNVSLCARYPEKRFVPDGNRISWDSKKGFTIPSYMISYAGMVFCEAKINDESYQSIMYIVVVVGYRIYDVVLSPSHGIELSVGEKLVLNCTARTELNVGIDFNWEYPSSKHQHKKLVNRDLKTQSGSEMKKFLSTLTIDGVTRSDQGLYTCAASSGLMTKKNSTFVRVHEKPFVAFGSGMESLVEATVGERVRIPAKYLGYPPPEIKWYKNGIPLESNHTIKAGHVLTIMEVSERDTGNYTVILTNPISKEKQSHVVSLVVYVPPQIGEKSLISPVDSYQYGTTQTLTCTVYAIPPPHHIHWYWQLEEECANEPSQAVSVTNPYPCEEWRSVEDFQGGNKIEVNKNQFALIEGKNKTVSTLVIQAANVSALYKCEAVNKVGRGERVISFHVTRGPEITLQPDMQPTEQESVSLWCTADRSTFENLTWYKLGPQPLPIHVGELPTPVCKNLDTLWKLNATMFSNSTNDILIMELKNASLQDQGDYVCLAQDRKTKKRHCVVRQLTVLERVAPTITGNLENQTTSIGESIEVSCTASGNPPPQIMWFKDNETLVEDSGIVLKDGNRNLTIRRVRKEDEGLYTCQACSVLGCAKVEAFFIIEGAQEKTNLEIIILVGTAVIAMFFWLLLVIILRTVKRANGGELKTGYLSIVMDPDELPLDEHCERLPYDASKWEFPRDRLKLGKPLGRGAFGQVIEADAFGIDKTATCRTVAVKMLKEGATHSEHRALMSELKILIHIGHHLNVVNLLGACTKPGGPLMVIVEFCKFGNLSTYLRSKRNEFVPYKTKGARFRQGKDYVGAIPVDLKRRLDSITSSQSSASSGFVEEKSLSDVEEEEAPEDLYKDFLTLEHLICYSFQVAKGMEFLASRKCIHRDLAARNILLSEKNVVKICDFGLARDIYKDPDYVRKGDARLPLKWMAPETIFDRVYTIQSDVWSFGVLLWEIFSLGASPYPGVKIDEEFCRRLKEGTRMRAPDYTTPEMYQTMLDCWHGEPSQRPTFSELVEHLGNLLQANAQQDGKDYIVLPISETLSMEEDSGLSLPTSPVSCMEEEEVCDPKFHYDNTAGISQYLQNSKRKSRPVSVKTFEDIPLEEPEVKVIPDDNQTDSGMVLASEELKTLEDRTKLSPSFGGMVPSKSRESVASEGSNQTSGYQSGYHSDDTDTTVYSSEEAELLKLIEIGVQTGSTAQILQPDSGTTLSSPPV
MEASURED QUANTITY: inhibition at 0.1 µM (%)

Consider the worked cases shown below.
Cc1[nH]c2c(c1C(=O)NCCO)CCC/C2=C1/C(=O)Nc2ccccc21 ... 76
Cc1[nH]c2c(c1C(=O)NCC(O)CN1CCCC1)CCC/C2=C1/C(=O)Nc2ccccc21 (stereo not drawn) ... 84
Cc1[nH]c2c(c1C(=O)NCCCN(C)C)CCC/C2=C1/C(=O)Nc2ccc(Cl)cc21 ... 82
CCN(CC)CCNC(=O)c1c(C)[nH]c2c1CCC/C2=C1/C(=O)Nc2ccccc21 ... 74
CCN(CC)CCNC(=O)c1c(C)[nH]c2c1CCC/C2=C1/C(=O)Nc2ccc(F)cc21 ... 75
Cc1[nH]c2c(c1C(=O)NCCN(C)C)CCC/C2=C1/C(=O)Nc2ccc(F)cc21 ... 79

[1] CCN(CC)CC(O)CNC(=O)c1c(C)[nH]c2c1CCC/C2=C1/C(=O)Nc2ccccc21 (stereo not drawn)
[2] CCN(CC)CCNC(=O)c1c(C)[nH]c2c1CCC/C2=C1/C(=O)Nc2ccc(Cl)cc21
Looking only at measured inhibition at 0.1 µM, which entry is lower, 1 or 2 ? # reply format: chosen label
2
(2: 54%, 1: 80%)

====

Tested on: Human Gastric Cancer Cell Line (BGC)
Experiment: Tumor cell proliferation assay (MTT), BGC
Type: cell-based
Settings: concentration of 10^−5 mol/L, preliminary screening, 72 hours, read-out: Inhibition rate % BGC
Text: The assay used generally is the blue tetrazolium bromide (MTT) method. […] The amount of formazan can be detected by the microplate reader through the absorption value at 570 nm. […] The assay used generally is the blue tetrazolium bromide (MTT) method. […] Intracellular purple formazan salt crystals can be solved in DMSO and the absorption value at 570 nm is detected by the microplate reader, then the number of living cells can be detected indirectly. […]
MEASURED QUANTITY: inhibition at 10 µM (%)
Give just the number in %; leave the unit off.

// solved cases for inhibition at 10 µM follow
Cc1[nH]c2c(c1C(=O)NCCCN(C)C)CCC/C2=C1/C(=O)Nc2ccc(Cl)cc21 ... 75.9
CCN(CC)CC(O)CNC(=O)c1c(C)[nH]c2c1CCC/C2=C1/C(=O)Nc2ccc(Cl)cc21 (stereo not drawn) ... 91.1
Cc1[nH]c2c(c1C(=O)NCC(O)CN1CCCC1)CCC/C2=C1/C(=O)Nc2ccc(F)cc21 (stereo not drawn) ... 82.3
CCN(CC)CCNC(=O)c1c(C)[nH]c2c1CCC/C2=C1/C(=O)Nc2ccc(Cl)cc21 ... 78.1
Cc1[nH]c2c(c1C(=O)NCC(O)CN1CCOCC1)CCC/C2=C1/C(=O)Nc2ccc(Cl)cc21 (stereo not drawn) ... 30
Cc1[nH]c2c(c1C(=O)NCC(O)CN1CCN(C)CC1)CCC/C2=C1/C(=O)Nc2ccccc21 (stereo not drawn) ... 74.2
Cc1[nH]c2c(c1C(=O)NCCO)CCC/C2=C1/C(=O)Nc2ccc(F)cc21 ... 42.1
CCN(CC)CC(O)CNC(=O)c1c(C)[nH]c2c1CCC/C2=C1/C(=O)Nc2ccc(F)cc21 (stereo not drawn) ... 84.7

Consider the compound Cc1[nH]c2c(c1C(=O)NCC(O)CN1CCN(C)CC1)CCC/C2=C1/C(=O)Nc2ccc(Cl)cc21 (stereo not drawn) and give its measured inhibition at 10 µM.
48.5

// returns reported inhibition at 10 µM for input Cc1[nH]c2c(c1C(=O)NCC(O)CN1CCCCC1)CCC/C2=C1/C(=O)Nc2ccc(Cl)cc21 (stereo not drawn)
45.4
